Origin of measurements: patent US20200339690A1

TEST SYSTEM: T1, human LILRB2 expressed on cells (human, UniProt Q8N423 22-597)
T1 construct: CHO-s cells over-expressing full-length human LILRB2, or primary human macrophages and dendritic cells; also called hLILRB2-CHO-s; hLILRB2+ CHO-s
T1 sequence (Q8N423 other isoform, or with tags, fused parts or gaps limits assumed): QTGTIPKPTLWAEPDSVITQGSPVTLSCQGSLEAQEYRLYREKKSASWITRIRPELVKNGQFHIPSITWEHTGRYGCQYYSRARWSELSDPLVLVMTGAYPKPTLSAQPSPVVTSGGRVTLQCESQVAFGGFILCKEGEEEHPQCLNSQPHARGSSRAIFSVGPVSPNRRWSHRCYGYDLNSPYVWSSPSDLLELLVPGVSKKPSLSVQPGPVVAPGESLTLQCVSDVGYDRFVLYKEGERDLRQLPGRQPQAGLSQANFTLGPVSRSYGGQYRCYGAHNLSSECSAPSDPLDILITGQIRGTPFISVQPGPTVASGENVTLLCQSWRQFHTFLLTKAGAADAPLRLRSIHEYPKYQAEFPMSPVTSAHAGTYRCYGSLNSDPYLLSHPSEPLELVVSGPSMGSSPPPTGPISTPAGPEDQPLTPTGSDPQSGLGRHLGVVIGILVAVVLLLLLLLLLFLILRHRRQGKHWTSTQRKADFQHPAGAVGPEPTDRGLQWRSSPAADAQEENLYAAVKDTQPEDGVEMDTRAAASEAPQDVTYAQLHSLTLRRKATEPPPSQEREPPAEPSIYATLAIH
PROTOCOL: blocking of HLA-G tetramer on LILRB2 CHOs, flow cytometry, mAb 10 ug/mL
QUANTITY: HLA-G:LILRB2 CHOs blocking (% blocked)
Just the number in % blocked, nothing appended.

Guide cases for HLA-G:LILRB2 CHOs blocking (% blocked), answers given:
Q) Would you mind telling me what HLA-G:LILRB2 CHOs blocking (% blocked) value was observed for J-04 (antibody, human IgG4 S228P, kappa, V domains shown, Human IgG4 chimera of murine origin) VH: QVQLQQSGAELVRPGASVTLSCKASGYTFADYEIHWVKQTPVHGLEWIGAIDPETGGTAYNQKFKGKAILTADKSSSTAYMELRSLTSEDSAVYYCTRYYDYDDAMDYWGQGTSVTVSS VL: QIVLTQSPAIMSASPGEKVTMTCSASSSVSFMHWYQQKSGTSPKRWIYGTSKLASGVPARFSGSGSGTSYSLTISSMEAEDAATYYCQQWNGNPFTFGSGTKLETKR ?
A) -255

Q) Would you mind telling me what HLA-G:LILRB2 CHOs blocking (% blocked) value was observed for J-03 (antibody, human IgG4 S228P, kappa, V domains shown, Human IgG4 chimera of murine origin) VH: QVQLQQSGAELVRPGASVTLSCKASGYKFTDYEMHWVKQTPVHGLEWIGAIDPETNGTAYNKKFKGKAILTADKSSSTAYMELRSLTSEDSAVYYCTRGDYDFSAWFAYWGQGTLVTVSA VL: DIVLTQSPASLAVSLGQRATISCRASESVDNYDISFMHWYQQKPGQPPKLLIYRASNLESGIPARFSGSGSRTDFTLTINPVETDDVATYYCQQSNKDPRTFGGGTKLEIKR ?
A) -156

Q) Would you mind telling me what HLA-G:LILRB2 CHOs blocking (% blocked) value was observed for J-17 (antibody, human IgG4 S228P, kappa, V domains shown, Human IgG4 chimera of murine origin; also called J-17.h) VH: QIQLVQSGPELKKPGETVKISCKASGYTFTTYGLSWVKQTPGKGLKWMGWINTYSGVPTYTDDFKGRFAFSLETSASTAYLQINNLKNEDTATYFCARPYDFDQVGFAYWGQGTLVTVSA VL: SIVMTQTPKFLLVSAGDRVSITCKASQTVSSDVAWYQQKAGQSPKLLIYYASNRYTGVPDRFTGSGYGTDFTFTISTVQAEDLAVYFCQQDYSSPFTFGGGSKLEIKR ?
A) 96.6

***
Q) Would you mind telling me what HLA-G:LILRB2 CHOs blocking (% blocked) value was observed for J-19 (antibody, human IgG4 S228P, kappa, V domains shown, Human IgG4 chimera from a rat immunization; also called J-19.h) VH: QVTLKESGPGILQPSHTLSLTCSFSGFSLNTYAMGVSWIRQPSGKGLEWLASIWWNGNKYNNPSLKSRLTVSKDTSNNQAFLKVTSVDTADTATYYCAHSRIIRFTDYVMDAWGQGASVTVSS VL: DIQMTQSPASLSTFLGEPVTIECRASEDIYNDLAWYQQKPGKSPQLLIYNANSLHTGVPSRFSGSGSGTQYSLKINSLQSEDVASYFCQQYYDYPLTFGSGTKLEIKR ?
A) 97
